- assay-protocol: Solubility assay
- Type: physicochemical
- condition-parameters: sodium phosphate buffer, pH 7.4, aqueous buffer, kinetic from dmso stock
Reported solubility values are given for each entry in this list.
measure: solubility

| molecule | measure | measured-value |
| --- | --- | --- |
| O=C(Nc1ccc(-c2nnnn2C2CC2)cc1)C1CCN(S(=O)(=O)c2ccccc2Cl)CC1 | solubility | 31 to 63 µM |
| NC(=O)c1cccc(-c2cccc(OC(=O)NC3CCCCC3)c2)c1 [URB597, reference compound] | solubility | > 63 µM |
| O=C(Nc1ccc(-c2ncccn2)cc1)C1CCN(S(=O)(=O)c2ccccc2Cl)CC1 | solubility | > 63 µM |
| O=C(Nc1ccc(-c2cnc(F)nc2)cc1)C1CCN(S(=O)(=O)c2ccccc2Cl)CC1 | solubility | 31 to 63 µM |
| O=C(Nc1ccc(-c2ncc(F)cn2)cc1)C1CCN(S(=O)(=O)c2ccccc2Cl)CC1 | solubility | 31 to 63 µM |
| O=C(Nc1ccc(-c2cnc3ccccc3n2)cc1)C1CCN(S(=O)(=O)c2ccccc2Cl)CC1 | solubility | 31 to 63 µM |
| O=C(Nc1ccc(-c2cncnc2)cc1)C1CCN(S(=O)(=O)c2ccccc2Cl)CC1 | solubility | > 63 µM |
| O=C(Nc1ccc(-c2nnn[nH]2)cc1)C1CCN(S(=O)(=O)c2ccccc2Cl)CC1 | solubility | 31 to 63 µM |

###

Read-out record for rat sEH (Rattus norvegicus): IC50
measure: IC50 (nM)

| compound | target-desc | measure | measured-value |
| --- | --- | --- | --- |
| O=C(Nc1ccc(-c2ncc(F)cn2)cc1)C1CCN(S(=O)(=O)c2ccccc2Cl)CC1 [Compound 4c] | rat sEH (Rattus norvegicus) | IC50 | 47.7 |
| O=C(Nc1ccc(-c2nnn[nH]2)cc1)C1CCN(S(=O)(=O)c2ccccc2Cl)CC1 [Compound 4n] | rat sEH (Rattus norvegicus) | IC50 | 83.4 |
| COc1ncc(-c2ccc(NC(=O)C3CCN(S(=O)(=O)c4ccccc4Cl)CC3)cc2)cn1 [Compound 4j] | rat sEH (Rattus norvegicus) | IC50 | 17.9 |
| Cc1cnc(-c2ccc(NC(=O)C3CCN(S(=O)(=O)c4ccccc4Cl)CC3)cc2)nc1 [Compound 4e] | rat sEH (Rattus norvegicus) | IC50 | 73.9 |

###

- target-desc: rat sEH (Rattus norvegicus, UniProt P80299)
- Sequence (P80299 1-554): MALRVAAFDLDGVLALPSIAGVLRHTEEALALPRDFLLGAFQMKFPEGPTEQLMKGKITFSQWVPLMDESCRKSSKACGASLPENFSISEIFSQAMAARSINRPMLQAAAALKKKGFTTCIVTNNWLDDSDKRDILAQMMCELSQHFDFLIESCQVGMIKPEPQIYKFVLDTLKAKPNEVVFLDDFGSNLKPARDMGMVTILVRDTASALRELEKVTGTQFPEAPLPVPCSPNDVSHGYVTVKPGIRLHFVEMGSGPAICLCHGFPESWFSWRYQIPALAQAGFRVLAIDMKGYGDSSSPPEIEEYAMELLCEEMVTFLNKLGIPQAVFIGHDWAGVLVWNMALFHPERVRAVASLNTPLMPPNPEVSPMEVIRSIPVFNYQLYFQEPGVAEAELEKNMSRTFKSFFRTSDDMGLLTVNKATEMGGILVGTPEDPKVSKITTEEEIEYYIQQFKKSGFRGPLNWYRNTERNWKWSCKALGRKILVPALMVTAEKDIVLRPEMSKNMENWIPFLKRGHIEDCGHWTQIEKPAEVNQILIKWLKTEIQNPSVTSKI
Field: label. Allowed values: Criterion met (IC50 < 30 nM) or Criterion not met (IC50 >= 30 nM).

| smiles-repr | label |
| --- | --- |
| O=C(Nc1ccc(-c2ncc(Cl)cn2)cc1)C1CCN(S(=O)(=O)c2ccccc2Cl)CC1 | Criterion not met |
| O=C(Nc1ccc(-c2cncnc2)cc1)C1CCN(S(=O)(=O)c2ccccc2Cl)CC1 | Criterion met |
| O=C(Nc1ccc(-c2ncccn2)cc1)C1CCN(S(=O)(=O)c2ccccc2Cl)CC1 | Criterion met |
| O=C(Nc1ccc(-c2nnnn2Cc2ccccc2)cc1)C1CCN(S(=O)(=O)c2ccccc2Cl)CC1 | Criterion met |
| COc1cnc(-c2ccc(NC(=O)C3CCN(S(=O)(=O)c4ccccc4Cl)CC3)cc2)nc1 | Criterion not met |
| O=C(Nc1ccc(-c2cnc(Cl)nc2Cl)cc1)C1CCN(S(=O)(=O)c2ccccc2Cl)CC1 | Criterion met |
| O=C(Nc1ccc(-c2cnc(C(F)(F)F)nc2)cc1)C1CCN(S(=O)(=O)c2ccccc2Cl)CC1 | Criterion not met |
| O=C(Nc1ccc(-c2cnc(F)nc2)cc1)C1CCN(S(=O)(=O)c2ccccc2Cl)CC1 | Criterion not met |
| O=C(Nc1ccc(-c2cnc(Cl)nc2)cc1)C1CCN(S(=O)(=O)c2ccccc2Cl)CC1 | Criterion not met |
| Cc1ncc(-c2ccc(NC(=O)C3CCN(S(=O)(=O)c4ccccc4Cl)CC3)cc2)cn1 | Criterion met |
| COc1cnc(-n2nnnc2-c2ccc(NC(=O)C3CCN(S(=O)(=O)c4ccccc4Cl)CC3)cc2)c(OC)n1 | Criterion not met |
| COc1cn2c(-c3ccc(NC(=O)C4CCN(S(=O)(=O)c5ccccc5Cl)CC4)cc3)nnc2c(OC)n1 | Criterion met |
| O=C(Nc1ccc(-c2cnc3ccccc3n2)cc1)C1CCN(S(=O)(=O)c2ccccc2Cl)CC1 | Criterion met |

Just for reference, paper PMC12814486 is where these values come from.
